Test system: Human immunodeficiency virus 1
PROCEDURE SUMMARY: Antiviral activity against HIV1 3B infected in human MT2 cells assessed as inhibition of p24 production after 4 days by ELISA
Type: functional, organism-based
ASSAY SETUP: Human immunodeficiency virus 1, 3B, MT2, 96 h; read-out: EC50
MEASUREMENT TYPE: EC50 (µM)
Respond numerically; units are µM and should not be typed.

I have this molecule here, Cc1cc(/C=C2\SC(=S)N(c3cccc(O)c3)C2=O)c(C)n1-c1cccc(-c2nnn[nH]2)c1 , and I need its recorded EC50.
6.3

Repeat for the following molecule: Cc1cc(/C=C2\SC(=S)N(Cc3ccccc3)C2=O)c(C)n1-c1cccc(-c2nnn[nH]2)c1
12.3

Repeat for the following molecule: COc1ccc(N2C(=O)N/C(=C\c3cc(C)n(-c4cccc(-c5nnn[nH]5)c4)c3C)C2=O)cc1
51.6

Repeat for the following molecule: Cc1cc(/C=C/[N+](=O)[O-])c(C)n1-c1cccc(-c2nnn[nH]2)c1
29.3

Repeat for the following molecule: Cc1cc(/C=C2\SC(=S)N(CCc3ccccc3)C2=O)c(C)n1-c1cccc(-c2nnn[nH]2)c1
4.1
